Recorded values, source patent US7074789B2.

measured-on: AKT (Homo sapiens)
Construct: Kinases are expressed as either kinase domains or full length constructs; made in house
Sequence (Q9Y243 whole entry, the tested form may be a part): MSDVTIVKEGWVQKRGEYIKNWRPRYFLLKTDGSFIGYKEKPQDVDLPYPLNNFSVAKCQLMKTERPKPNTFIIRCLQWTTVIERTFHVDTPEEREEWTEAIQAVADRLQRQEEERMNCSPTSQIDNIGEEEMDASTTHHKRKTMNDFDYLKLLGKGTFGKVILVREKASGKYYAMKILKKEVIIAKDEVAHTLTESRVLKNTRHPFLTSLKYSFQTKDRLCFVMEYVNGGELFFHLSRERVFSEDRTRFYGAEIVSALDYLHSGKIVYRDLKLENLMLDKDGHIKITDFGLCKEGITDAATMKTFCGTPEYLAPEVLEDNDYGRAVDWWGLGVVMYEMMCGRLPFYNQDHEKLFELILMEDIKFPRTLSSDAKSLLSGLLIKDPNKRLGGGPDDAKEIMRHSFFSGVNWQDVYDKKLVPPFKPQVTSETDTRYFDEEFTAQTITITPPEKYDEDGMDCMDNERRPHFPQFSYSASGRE
protocol-summary: Kinase inhibition assay (33P transfer), AKT
Type: biochemical
recorded-conditions: Table 2, class symbols A-E; read-out: AKT3-1
pIC50: −log10 of the molar value.
pIC50 values by entry

{"columns": ["compound", "pIC50"],
 "data": [
  ["c1ccc(-c2cc(Nc3ncnc(Nc4cccc(-c5cnco5)c4)n3)[nH]n2)cc1 [Compound 1010]", "5.22 to 6.00"],
  ["CC(C)Nc1ncccc1-c1ncnc(Nc2ccc(N3CCOCC3)cc2)n1 [Compound 1112]", "< 4.94"],
  ["COc1ccc(CCNc2ncnc(Nc3cc(-c4ccco4)[nH]n3)n2)cc1OC [Compound 823]", "5.23 to 6.01"],
  ["OCc1cccc(Nc2ncnc(-c3cccnc3Nc3ccccc3)n2)c1 [Compound 1115]", "< 4.92"],
  ["COc1cc(Nc2ncnc(Nc3cccc(Cl)c3)n2)cc(OC)c1 [Compound 723]", "5.17 to 5.95"],
  ["Fc1ccc(CNc2ncccc2-c2ncnc(Nc3ccc4[nH]ncc4c3)n2)cc1 [Compound 1108]", "5.24 to 6.01"]
]}

Given the compound COc1cc(Nc2ncnc(-c3cccnc3Nc3ccccc3C)n2)cc(OC)c1OC [Compound 833] , write its reported pIC50.
< 4.99

Let me know recorded pIC50 for COc1cc(Nc2ncnc(Nc3cc(-c4ccco4)[nH]n3)n2)cc(C(F)(F)F)c1 [Compound 821] , thanks.
5.08 to 5.24

Using the record for COC(=O)c1cccc(Nc2ncnc(-n3c(Cl)nc4ccccc43)n2)c1 [Compound 1066] , state its measured pIC50.
5.04 to 5.20

Using the record for COc1ccc(Nc2ncnc(N(C)c3ccccc3)n2)cc1OC [Compound 797] , state its measured pIC50.
< 4.87
